Each recorded value in this set is attributed to patent US12338262B2.

# target of assay: TNF-α (Homo sapiens)
# method summary: TNF-α Induced HEK Blue Cellular Assay
# measurement parameters: HEK Blue TNFα reporter cells, TNF-α 100 pg/ml, 24 hrs at 37° C., secreted alkaline phosphatase (QUANTI-Blue, 620 nm)
# Method: TNF-α Induced HEK Bluet Cellular Assay Test articles were diluted in DMSO and serially diluted into 384 well assay plate (Corning 3765), at final concentrations ranging from 30 mM to 0.5 nM. […]
pIC50: −log10 of the molar value.
Exercise: for every item that follows, state its recorded pIC50.

CC[C@H](Nc1c(Cl)c(C)nc2cc(F)c(-c3ccc(P(C)(C)=O)nc3)c(F)c12)c1ncccc1F	≥ 6.00
Cc1nc2cc(F)c(-c3ccc(P(C)(C)=O)nc3)cc2c(N[C@H](C)c2cc(F)cc(F)c2)c1Cl	≥ 6.00
Cc1nc2cc(F)c(-c3ccc(P(C)(C)=O)nc3)nc2c(N[C@@H](c2cc(C#N)ccc2F)C(F)F)c1Cl	≥ 7.00
Cc1nc2cc(F)c(-c3ccc(P(C)(C)=O)nc3)nc2c(N[C@H](C)c2cc(F)cc(Cl)c2)c1Cl	≥ 6.00
Cc1nc2cc(F)c(-c3ccc(P(C)(C)=O)nc3)nc2c(N[C@@H](C)c2ncccc2F)c1Cl (single isomer, unassigned)	5.00 to 6.00
Cc1nc2cc(F)c(-c3ccc(P(C)(C)=O)nc3)nc2c(N[C@@H](C)c2nc(C#N)ccc2F)c1Cl	≥ 7.00

INPUT: Entry `CC[P@@](C)(=O)c1ccc(-c2nc3c(N[C@H](C)c4cc(C#N)ccc4F)c(Cl)c(C)nc3cc2F)cn1` has what pIC50?
OUTPUT: ≥ 7.00

* * *

# target of assay: TNF-α (Homo sapiens, UniProt P01375)
# Sequence (P01375 77-233 limits assumed): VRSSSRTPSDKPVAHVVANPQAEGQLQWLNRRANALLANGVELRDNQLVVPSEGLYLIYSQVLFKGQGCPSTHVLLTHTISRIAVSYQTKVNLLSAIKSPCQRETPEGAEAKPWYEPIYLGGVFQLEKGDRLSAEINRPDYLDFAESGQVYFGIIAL
# method summary: TNF-α Induced HEK Blue Cellular Assay
# measurement parameters: HEK Blue TNFα reporter cells, TNF-α 100 pg/ml, 24 hrs at 37° C., secreted alkaline phosphatase (QUANTI-Blue, 620 nm)
# Protocol: TNF-α Induced HEK Bluet Cellular Assay Test articles were diluted in DMSO and serially diluted into 384 well assay plate (Corning 3765), at final concentrations ranging from 30 mM to 0.5 nM. […]
For each record, write down the corresponding IC50.

Dear reader, for each entry below, please note its IC50.
1. Cc1nc2cc(F)c(-c3ccc(P(C)(C)=O)nc3)nc2c(N[C@H](C)c2cccc(C#N)c2)c1Cl
2. Cc1nc2cc(F)c(-c3ccc(P(C)(C)=O)nc3)nc2c(N[C@H](C)c2cccc(Cl)c2F)c1Cl
3. Cc1nc2cc(F)c(-c3ccc(P(C)(C)=O)nc3)nc2c(N[C@@H](c2cc(F)cc(F)c2)C2CC2)c1Cl
4. CC[P@](C)(=O)c1ccc(-c2nc3c(N[C@H](C)c4cc(C#N)ccc4F)c(Cl)c(C)nc3cc2F)cn1 (single isomer, unassigned)

OUTPUT:
["≤ 100 nM", "≤ 100 nM", "≤ 1000 nM", "≤ 100 nM"]

* * *

Give IC50 for every item shown.
# target of assay: TNF-α (Homo sapiens, UniProt P01375)
# method summary: TNF-α Induced HEK Blue Cellular Assay
# measurement parameters: HEK Blue TNFα reporter cells, TNF-α 100 pg/ml, 24 hrs at 37° C., secreted alkaline phosphatase (QUANTI-Blue, 620 nm)

CC[C@@H](Nc1c(Cl)c(C)nc2cc(F)c(-c3cnc(P(C)(C)=O)nc3)nc12)c1cccc(C#N)c1	≤ 1 µM
COc1cc([C@@H](C)Nc2c(Cl)c(C)nc3cc(F)c(-c4ccc(P(C)(C)=O)nc4)nc23)ccn1	10 to 30 µM
Cc1nc2cc(F)c(-c3ccc(P(C)(C)=O)nc3)nc2c(N[C@@H](C)c2ccc(F)c(F)c2F)c1Cl (single isomer, unassigned)	≤ 0.1 µM
Cc1nc2cc(F)c(-c3ccc(P(C)(C)=O)nc3)nc2c(N[C@@H](c2ccccc2)C2CC2)c1Cl	≤ 1 µM

Please look at the items below and tell me IC50 for each one, in order.
1. Cc1nc2cc(F)c(-c3ccc(P(C)(C)=O)nc3)nc2c(N[C@H](C)c2c(F)ccc(F)c2F)c1Cl
2. Cc1nc2cc(F)c(-c3ccc(P(C)(C)=O)nc3)nc2c(NC(c2ncccc2F)C2CC2)c1Cl (stereo not drawn)

OUTPUT:
["10 to 30 µM", "≤ 1 µM"]
